# measured-target: Fyn (UniProt P06241)
# Sequence (P06241 whole entry, looked up): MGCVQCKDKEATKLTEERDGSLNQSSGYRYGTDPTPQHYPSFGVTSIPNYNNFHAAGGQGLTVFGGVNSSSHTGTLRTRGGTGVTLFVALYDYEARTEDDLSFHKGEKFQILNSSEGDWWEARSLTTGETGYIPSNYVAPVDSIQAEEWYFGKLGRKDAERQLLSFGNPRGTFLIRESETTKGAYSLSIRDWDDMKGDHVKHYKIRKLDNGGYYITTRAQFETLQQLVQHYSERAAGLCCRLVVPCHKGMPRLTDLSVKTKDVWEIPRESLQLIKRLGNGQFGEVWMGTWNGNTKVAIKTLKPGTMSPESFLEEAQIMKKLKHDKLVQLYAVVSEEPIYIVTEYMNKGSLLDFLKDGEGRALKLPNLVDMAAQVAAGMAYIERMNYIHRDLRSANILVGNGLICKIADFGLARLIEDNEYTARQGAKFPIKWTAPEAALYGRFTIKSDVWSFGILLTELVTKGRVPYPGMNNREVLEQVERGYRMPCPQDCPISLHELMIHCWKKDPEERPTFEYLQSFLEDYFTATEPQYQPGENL
# procedure-summary: phosphorylation enrichment, bacterial display (enrichment ratio); higher = better substrate or ligand; peptides without Tyr show the background;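 note: 11-residue human phosphosite peptides and single-mutation variants displayed on the E. coli surface, counted by deep sequencing, each peptide's frequency after selection divided by its frequency in the unselected input library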;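 note: frequency after pTyr selection over input frequency; kinase dosed for 20-30% of maximal phosphorylation in three min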
# if value of phosphorylation enrichment reaches 0.5, tag Met; if it stays below, tag Not met

PAIYTYDEYKK [COL8A2_Y648_T645I] :: Met

Now examine the next entry.
Kindly determine if phosphorylation enrichment recorded for NTFENYWPFFQ [GATM_Y103_K102N_YF] is above or exactly 0.5.
Met

###

# Tested on: c-Abl (mouse)
# procedure-summary: phosphorylation enrichment, bacterial display (enrichment ratio); higher = better substrate or ligand; peptides without Tyr show the background
value-type: phosphorylation enrichment
Lab note: jot down the number only; don't add units.

Recorded phosphorylation enrichment, per entry:
KYVKMYDNHQL [MYO9A_Y203] :: 0.696
EIVYVYVKKRS [DNAI2_Y7] :: 0.64
LENSTYQYIRV [CRB1_Y760] :: 0.91
GMTLSYLFREP [NDUFS8_Y74] :: 0.652

Output measured phosphorylation enrichment for this item: NQKGKYFNVER [ANAPC4_Y469_R465Q]
0.588

Provide one value: measured phosphorylation enrichment of PCPANYFAFKI [FAM3D_Y65]
7.14

Please give measured phosphorylation enrichment of the following entry: EIIPFYGMSTF [FNDC3B_Y175_YF]
0.97

Read the entry DLHGIYQKLVI and write its reported phosphorylation enrichment.
3.83

Using known records, supply phosphorylation enrichment for VFFGSYSRPFG [NKAP_Y104_YF]
1.02

Supply reported phosphorylation enrichment belonging to this sequence: DRLTVYIDRVR [LMNA_Y45_A43T]
0.749

Note phosphorylation enrichment for the sequence shown: EEGESYVCSSD [DCX_Y125]
0.924

Quick one: give measured phosphorylation enrichment for RGNMFYENSFA [EGFR_Y113_YF]
0.533

Return value of phosphorylation enrichment for input GIVEDYRPPVF [ACVRL1_Y421_F425V_YF] , no commentary.
0.63

Return phosphorylation enrichment (reported value) for this sequence: QFRFIYMAVQH [PTPN11_Y515_YF]
1.73

Check the records and state phosphorylation enrichment for AKIDGYITSFR
0.573

Complete the entry with phosphorylation enrichment for HSLRDYKEALM [ADA2_Y337_H335R]
0.751

Provide phosphorylation enrichment value for the following sequence: KDHPDYEFQPR [SOX9_Y172_K173E_YF]
0.509

Supply phosphorylation enrichment value. Item: ADARMYGDLPW [PLP1_Y207_V209D]
0.586

Specify measured phosphorylation enrichment for NVFGNYNNQSS [HNRNPA1_Y318_D314V] .
0.352

Give recorded phosphorylation enrichment. MALDIYRASFF [ALK_Y1278_R1275L_YF]
4.88

Recall and state the measured phosphorylation enrichment for LLKAKYELLNA [POLR3A_Y714] .
0.544

###

# measured-target: EPHB1 (UniProt P54762)
# Sequence (P54762 whole entry, looked up): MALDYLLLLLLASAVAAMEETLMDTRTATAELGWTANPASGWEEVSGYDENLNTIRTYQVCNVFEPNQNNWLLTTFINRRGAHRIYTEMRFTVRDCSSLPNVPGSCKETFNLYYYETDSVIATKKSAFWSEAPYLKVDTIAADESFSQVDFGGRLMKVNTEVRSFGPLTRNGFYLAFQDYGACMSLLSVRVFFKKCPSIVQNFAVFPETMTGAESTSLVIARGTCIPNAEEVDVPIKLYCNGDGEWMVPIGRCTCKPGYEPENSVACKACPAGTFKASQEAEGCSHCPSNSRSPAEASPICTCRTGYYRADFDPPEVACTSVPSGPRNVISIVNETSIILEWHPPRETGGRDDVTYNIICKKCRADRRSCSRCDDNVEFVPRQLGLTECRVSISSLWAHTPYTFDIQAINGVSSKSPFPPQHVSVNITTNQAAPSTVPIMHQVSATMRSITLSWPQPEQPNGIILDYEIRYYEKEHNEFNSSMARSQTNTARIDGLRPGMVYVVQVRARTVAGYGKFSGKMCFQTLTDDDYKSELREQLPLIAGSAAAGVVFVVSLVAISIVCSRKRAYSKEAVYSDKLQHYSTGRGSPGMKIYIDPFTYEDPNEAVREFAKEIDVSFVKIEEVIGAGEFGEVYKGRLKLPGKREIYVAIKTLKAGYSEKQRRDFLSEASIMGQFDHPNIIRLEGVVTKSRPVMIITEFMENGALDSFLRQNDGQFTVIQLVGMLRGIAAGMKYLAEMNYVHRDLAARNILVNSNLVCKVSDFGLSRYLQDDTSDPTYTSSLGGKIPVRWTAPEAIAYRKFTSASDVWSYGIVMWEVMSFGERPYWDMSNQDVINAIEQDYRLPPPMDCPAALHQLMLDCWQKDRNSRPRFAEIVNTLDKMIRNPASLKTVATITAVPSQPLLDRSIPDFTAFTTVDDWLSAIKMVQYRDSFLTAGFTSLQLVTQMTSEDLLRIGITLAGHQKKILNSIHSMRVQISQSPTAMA
# procedure-summary: phosphorylation enrichment, bacterial display (enrichment ratio); higher = better substrate or ligand; peptides without Tyr show the background
Decision: phosphorylation enrichment compared against 0.6; not below it gives yes, below it gives no.

Consider the worked cases shown below.
EYKDAYTFAAD [BRDT_Y335_K336T] :: no
KPVEEYANCHL [TF_Y593] :: yes
LERFIYNREEF [HLA-DPB1_Y59_F64Y_YF] :: yes
HYPDVYAREQL [ALX3_Y181] :: no

Kindly determine if phosphorylation enrichment recorded for MAALSYVSEIG [BPIFB2_Y36_K31M] is above or exactly 0.6.
no

Evaluate ILDEAYVMAGA [ERBB2_Y772_V777A] : phosphorylation enrichment at minimum 0.6?
yes

# check: phosphorylation enrichment of MRTMGYMPREM [CABP5_Y62_T65R] is greater than or equal to 0.6
no

Quick check: does DRLASYPEKVR [KRT13_Y118_L119P] have phosphorylation enrichment greater than or equal to 0.6?
no

In plain terms: is recorded phosphorylation enrichment at least 0.6 for ETKKQYNSFTF [TMED3_Y85_D86N_YF] ?
no

Determine whether this sequence has phosphorylation enrichment no lower than 0.6: FQRITYHNWRH [PDE6B_Y556_R552Q_YF]
no

Reported phosphorylation enrichment at or above 0.6? QGIYGYHHYMQ [UFSP2_Y287]
yes

Kindly determine if phosphorylation enrichment recorded for VDDEIYYFRKP [PBRM1_Y1289] is above or exactly 0.6.
yes

Tell me whether phosphorylation enrichment is at least 0.6 here: YSTDCYRVGGH [NTRK2_Y707_Y706C]
no

Reported phosphorylation enrichment at or above 0.6? RNPLRYTSILT [OR51B6_Y130_S126N]
no

Entry YAFQLYDLDPD [CHP2_Y123_R127P] : is its phosphorylation enrichment no less than 0.6?
yes

In plain terms: is recorded phosphorylation enrichment at least 0.6 for TIMTDYNPNYC [ALK_Y1092] ?
yes

Record YDEYRYRSFIK [CFTR_Y517_V520F] ; criterion: phosphorylation enrichment no lower than 0.6. Met?
no

Entry NGEDLYAGSTD [XRCC1_Y515_P514L] : is its phosphorylation enrichment no less than 0.6?
no

Kindly determine if phosphorylation enrichment recorded for IRQDHYESLKE [MTR_Y921] is above or exactly 0.6.
no

###

Listing of entries alongside the reported phosphorylation enrichment.
# Test system: AncSZ
# procedure-summary: phosphorylation enrichment, bacterial display (enrichment ratio); higher = better substrate or ligand; peptides without Tyr show the background
Write the value as a bare number.

SDPIVYTLENI [EMR1_Y534_I533V] :: 1.09

Give the measured phosphorylation enrichment for QRRFVYFFSFL [PTEN_Y176_YF]
1.6

Dear colleague, please send me the reported phosphorylation enrichment for IAKNPYDPPGR when you can.
0.56

Give the reported phosphorylation enrichment for this sequence. EIVYVYVKKRS [DNAI2_Y7]
1.29

Entry IFCIQYNIRAF [MYH4_Y820] needs its phosphorylation enrichment filled in; supply it.
1.57

Provide only the value of recorded phosphorylation enrichment for AKRKGYDMQVD [NEB_Y2770_R2773Q]
0.473

Give reported phosphorylation enrichment value for ENFSEYQEISV [HEMGN_Y150_A154S]
1.59

Using the record for RRVPVYGGRGA [QDPR_Y16_L14P] , state its measured phosphorylation enrichment.
0.969

Could you please provide reported phosphorylation enrichment for SIGLGYHKDLQ [NF1_Y1169] ? Thanks!
0.528

Give the measured phosphorylation enrichment for VDDQIYFFRKP [PBRM1_Y1289_E1287Q_YF]
2.49

Give phosphorylation enrichment for SHLEDYPFDAE [AKR1B10_Y310_N313D]
0.986

###

# Tested on: Fer (mouse)
# procedure-summary: phosphorylation enrichment, bacterial display (enrichment ratio); higher = better substrate or ligand; peptides without Tyr show the background
value-type: phosphorylation enrichment
Format: numeric value only, no unit, no commentary.

Examples with their reported phosphorylation enrichment follow.
SVTCTYSPALS [TP53_Y126_N131S] :: 0.508
SLYPGYNFRYA [P2RX7_Y291] :: 0.498
GPGGDYAAMGA [ERBB3_Y1276] :: 0.488
TNGFTYGSSHQ [MANEA_Y331] :: 0.514

Give recorded phosphorylation enrichment. ERDYTYDELLN [EIF2S2_Y176_E177D]
0.506

###

In this section, each of the sequences is paired with its reported phosphorylation enrichment.
# measured-target: EPHB2 (UniProt P29323)
# Sequence (P29323 whole entry, looked up): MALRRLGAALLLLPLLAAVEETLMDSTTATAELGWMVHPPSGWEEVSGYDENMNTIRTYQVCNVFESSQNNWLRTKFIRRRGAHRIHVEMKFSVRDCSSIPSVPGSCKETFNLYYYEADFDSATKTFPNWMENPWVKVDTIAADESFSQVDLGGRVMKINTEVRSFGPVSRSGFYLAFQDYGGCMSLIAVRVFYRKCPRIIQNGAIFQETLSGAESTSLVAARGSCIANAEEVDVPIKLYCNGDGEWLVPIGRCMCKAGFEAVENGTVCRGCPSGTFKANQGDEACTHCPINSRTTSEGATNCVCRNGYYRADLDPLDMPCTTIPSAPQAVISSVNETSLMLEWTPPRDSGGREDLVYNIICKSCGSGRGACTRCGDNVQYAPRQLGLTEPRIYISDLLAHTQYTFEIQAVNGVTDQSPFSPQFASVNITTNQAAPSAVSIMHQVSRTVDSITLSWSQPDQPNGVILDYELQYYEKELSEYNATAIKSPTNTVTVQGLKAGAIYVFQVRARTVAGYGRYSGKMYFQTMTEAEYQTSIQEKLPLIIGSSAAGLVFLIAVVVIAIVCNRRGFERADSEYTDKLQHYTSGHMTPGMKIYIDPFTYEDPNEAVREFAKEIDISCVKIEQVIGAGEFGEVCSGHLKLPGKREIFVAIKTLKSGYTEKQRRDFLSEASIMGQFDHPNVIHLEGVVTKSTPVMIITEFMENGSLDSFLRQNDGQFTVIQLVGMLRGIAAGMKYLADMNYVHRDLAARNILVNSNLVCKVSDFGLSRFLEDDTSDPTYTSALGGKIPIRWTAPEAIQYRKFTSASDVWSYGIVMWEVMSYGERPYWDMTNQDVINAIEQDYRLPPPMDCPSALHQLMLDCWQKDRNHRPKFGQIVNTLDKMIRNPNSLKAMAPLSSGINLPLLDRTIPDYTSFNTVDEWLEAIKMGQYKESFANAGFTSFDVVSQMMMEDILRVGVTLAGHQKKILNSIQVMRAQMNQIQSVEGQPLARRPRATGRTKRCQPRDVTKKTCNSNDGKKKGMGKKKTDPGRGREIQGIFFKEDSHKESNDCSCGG
# procedure-summary: phosphorylation enrichment, bacterial display (enrichment ratio); higher = better substrate or ligand; peptides without Tyr show the background
Just the number, please.

SVTCTYSPDLN [TP53_Y126_A129D] :: 0.71

Hello, please tell me recorded phosphorylation enrichment for this one: QFRFIYMAVQH [PTPN11_Y515_YF]
0.704

Return reported phosphorylation enrichment. Input sequence: TEQDPYNNIVR [MMUT_Y364]
0.499

Answer with the recorded phosphorylation enrichment for the sequence listed here: VTSLKYSTPPF [BRIP1_Y916_S919P_YF]
0.493

Provide only the value of recorded phosphorylation enrichment for ERDYTYDELLN [EIF2S2_Y176_E177D]
0.682

Answer with the recorded phosphorylation enrichment of SAEEDYKADAK [KCNT1_Y876_M877K] only.
0.502

Return phosphorylation enrichment for the following sequence: GEIQEYGAPLD [ABCC1_Y1508_S1512L]
0.716

Note down phosphorylation enrichment recorded for FRDMDYRSFPR [RBM10_Y41_YF]
0.492

Report phosphorylation enrichment, nothing else, for this sequence: MPPHIYAITDT [MYH9_Y151]
0.514

Let me know recorded phosphorylation enrichment for GPQGVYSNKLV [PTPN14_Y506] , thanks.
0.502

Respond only with phosphorylation enrichment recorded for PPAPRYHHLAV [LZTR1_Y119_S122L]
0.514

###

# measured-target: Jak2 (UniProt O60674)
# Sequence (O60674 whole entry, looked up): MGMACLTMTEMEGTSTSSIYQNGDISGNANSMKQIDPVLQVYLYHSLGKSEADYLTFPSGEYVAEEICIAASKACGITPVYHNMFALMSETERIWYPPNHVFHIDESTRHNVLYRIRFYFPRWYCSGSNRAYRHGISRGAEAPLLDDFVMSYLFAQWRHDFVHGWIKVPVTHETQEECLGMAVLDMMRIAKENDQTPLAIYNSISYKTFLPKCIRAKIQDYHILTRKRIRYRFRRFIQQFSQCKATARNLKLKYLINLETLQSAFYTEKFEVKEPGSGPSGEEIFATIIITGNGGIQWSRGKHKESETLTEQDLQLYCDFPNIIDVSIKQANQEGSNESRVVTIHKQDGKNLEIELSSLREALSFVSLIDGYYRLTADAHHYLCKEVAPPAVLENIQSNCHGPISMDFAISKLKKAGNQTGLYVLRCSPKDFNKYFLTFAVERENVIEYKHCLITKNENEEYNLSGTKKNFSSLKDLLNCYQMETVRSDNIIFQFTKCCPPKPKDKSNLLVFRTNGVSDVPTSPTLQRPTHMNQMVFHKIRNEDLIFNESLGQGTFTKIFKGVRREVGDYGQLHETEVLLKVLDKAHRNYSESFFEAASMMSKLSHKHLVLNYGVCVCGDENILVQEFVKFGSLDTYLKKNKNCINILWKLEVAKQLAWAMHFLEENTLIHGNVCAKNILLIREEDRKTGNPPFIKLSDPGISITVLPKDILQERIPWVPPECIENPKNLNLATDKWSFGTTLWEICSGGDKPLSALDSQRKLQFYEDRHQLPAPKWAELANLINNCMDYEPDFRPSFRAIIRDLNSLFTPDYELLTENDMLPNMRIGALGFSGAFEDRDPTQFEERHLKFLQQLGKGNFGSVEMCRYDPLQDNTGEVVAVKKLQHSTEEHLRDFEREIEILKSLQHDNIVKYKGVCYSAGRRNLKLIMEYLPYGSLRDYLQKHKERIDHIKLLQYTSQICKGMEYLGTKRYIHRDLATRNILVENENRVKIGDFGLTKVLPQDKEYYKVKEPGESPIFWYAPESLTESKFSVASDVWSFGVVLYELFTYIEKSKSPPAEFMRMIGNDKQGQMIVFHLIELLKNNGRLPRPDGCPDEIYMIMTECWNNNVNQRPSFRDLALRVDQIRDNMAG
# procedure-summary: phosphorylation enrichment, bacterial display (enrichment ratio); higher = better substrate or ligand; peptides without Tyr show the background
Parameter: phosphorylation enrichment. Scope: all listed entries.
Please give only the number in your answer, with no unit.

Answered examples (2):
INMKKYCKKDF [NTN1_Y490_YF] :: 0.689
ALHHPYGCDVE [ABL2_Y80_R78H] :: 0.708

Give phosphorylation enrichment for KSPDSYQKILL [ATM_Y1415]
0.712
